System: glucose-6-phosphate dehydrogenase-6-phosphogluconolactonase (Plasmodium falciparum 3D7)
Test: inhibition of malaria parasite G6PD (PfGluPho) – biochemical, fluorescence intensity, uHTS, primary screen (AID 504690)
Details: PfGluPho enzyme, NADPH resazurin-diaphorase fluorescence; at 20 µM
Screen size: about 350,000 compounds; about 2,700 (0.77%) were called active.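 Rule for the calls: active = inhibition reaching at least a set limit at 20 µM in the primary screen (cut at about 59% in these data); inactive = the rest.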 For the sample, actives were picked, then their nearest neighbours and some compounds at random.
Answer with one of the outcomes given here: active, inactive

Consider the following illustrative entries.
CCC(=O)N1CCC(C(N)=O)(N2CCCCC2)CC1    inactive
COc1cccc(-n2c(=S)[nH]c3c(oc4ccccc43)c2=O)c1    inactive
Cc1ccc(C=O)c([B-](F)(F)F)c1    inactive

Task: Which outcome was entered for the compound COc1cc2c(cc1OC)C(C(=O)NCc1ccco1)C1c3ccccc3CCN1C2=O (configuration not stated) in this test?
Output: inactive

Task: Which outcome was entered for the compound O=C(NC(=O)c1cc(OCC(F)(F)F)ccc1OCC(F)(F)F)Nc1ccccc1 in this test?
Output: inactive

Task: Which outcome was entered for the compound COc1ccc(CCC(=O)N2CCN(S(=O)(=O)c3ccc(OC)cc3)CC2)cc1 in this test?
Output: inactive

Task: Which outcome was entered for the compound O=[N+]([O-])c1ccc(N2CCN(c3ccc(O)cc3)CC2)c(Cl)c1 in this test?
Output: active

Task: Which outcome was entered for the compound COCCNC(=O)Nc1ccc2nc(-c3ccco3)c(-c3ccco3)nc2c1 in this test?
Output: active

Task: Which outcome was entered for the compound CN(C)CCCNC(=S)N1CCN(c2nc(-c3ccccc3)cs2)CC1 in this test?
Output: inactive

Task: Which outcome was entered for the compound Cc1ccc(-n2nc(C)c(/C=N/NC(=O)c3cccs3)c2Cl)cc1 in this test?
Output: inactive

Task: Which outcome was entered for the compound Cc1ccc(Cc2c(-c3ccc(C)cc3)nc3c4ccccc4ccn23)cc1 in this test?
Output: inactive

Task: Which outcome was entered for the compound Cc1ccc(S(=O)(=O)N2CCCCC2)cc1C(=O)N1CCN(CCO)CC1 in this test?
Output: inactive

Task: Which outcome was entered for the compound O=C(O)C1CCN(c2ccc([N+](=O)[O-])cc2[N+](=O)[O-])CC1 in this test?
Output: inactive
